These entries and their values trace back to patent US11318157B2.

- TARGET OR TEST SYSTEM: PRMT5-MEP50 enzyme (Homo sapiens, UniProt O14744)
- Construct: One virus expresses full length human PRMT5 with Flag-tag at N-terminus; Flag (N); purchased Charles River (Argenta); host or cells: insect cells (Sf9), baculovirus co-infection
- Sequence (O14744 whole entry): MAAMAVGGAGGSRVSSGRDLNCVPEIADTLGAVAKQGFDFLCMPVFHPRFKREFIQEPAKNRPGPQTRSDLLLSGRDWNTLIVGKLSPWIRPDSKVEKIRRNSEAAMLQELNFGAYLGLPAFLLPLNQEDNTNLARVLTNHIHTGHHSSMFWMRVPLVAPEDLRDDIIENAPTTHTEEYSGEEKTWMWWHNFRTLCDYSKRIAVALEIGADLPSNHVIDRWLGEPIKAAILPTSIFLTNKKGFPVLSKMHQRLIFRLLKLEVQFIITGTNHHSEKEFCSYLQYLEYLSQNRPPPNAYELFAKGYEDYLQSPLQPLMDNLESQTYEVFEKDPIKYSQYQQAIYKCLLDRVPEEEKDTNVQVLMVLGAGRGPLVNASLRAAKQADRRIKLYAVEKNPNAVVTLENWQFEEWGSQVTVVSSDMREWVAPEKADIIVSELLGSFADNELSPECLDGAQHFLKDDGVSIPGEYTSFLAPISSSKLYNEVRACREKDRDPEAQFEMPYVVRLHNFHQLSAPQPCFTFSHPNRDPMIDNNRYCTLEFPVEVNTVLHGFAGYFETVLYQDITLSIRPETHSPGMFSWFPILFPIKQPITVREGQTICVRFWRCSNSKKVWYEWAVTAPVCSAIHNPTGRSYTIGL
- Sequence (Q9BQA1 whole entry partner): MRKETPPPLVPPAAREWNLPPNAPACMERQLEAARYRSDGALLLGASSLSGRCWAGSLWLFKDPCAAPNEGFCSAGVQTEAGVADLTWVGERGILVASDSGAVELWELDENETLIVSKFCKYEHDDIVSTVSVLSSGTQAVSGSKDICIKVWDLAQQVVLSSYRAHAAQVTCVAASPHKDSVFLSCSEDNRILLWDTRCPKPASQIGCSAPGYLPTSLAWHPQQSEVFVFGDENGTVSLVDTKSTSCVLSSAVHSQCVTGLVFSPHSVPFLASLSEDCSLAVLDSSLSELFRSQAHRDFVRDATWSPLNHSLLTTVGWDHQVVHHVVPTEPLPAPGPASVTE
- ASSAY OVERVIEW: In vitro assay 1b: high throughput mass spectrometer assay of SAH formation, 1.25 nM enzyme, 120 min
- Type: biochemical
- CONDITION: averaged values; PRMT5-MEP50, 1.25 nM enzyme, 120 min; read-out: pIC50 Assay 1b (converted)
MEASURE NAME: IC50 (nM)

Previously resolved entries follow.
Form field: reported IC50 of Nc1ncnc2c1ccn2[C@@H]1O[C@H](CNc2ccc3cc(Cl)cnc3c2)[C@@H](O)[C@H]1O
7.94

Form field: reported IC50 of CC(C)Nc1ncnc2c1ccn2[C@@H]1C[C@H](CCc2ccc3cc(Cl)c(N)nc3c2)[C@@H](O)[C@H]1O
2

[I] CNc1ncnc2c1ccn2[C@@H]1C[C@H](CCc2ccc3ccc(NCC(F)F)nc3c2)[C@@H](O)[C@H]1O
[II] Nc1ncnc2c1ncn2[C@@H]1O[C@H](COc2ccc3cc(Br)cnc3c2)[C@@H](O)[C@H]1O
// compare measured IC50, left I , right II , return larger # respond with the chosen item's label
II

[P] CCc1cnc2cc(CC[C@H]3O[C@@H](n4ccc5c(N)ncnc54)[C@H](O)[C@@H]3O)ccc2c1
[Q] COc1ncnc2c1ccn2[C@@H]1C[C@H](CCc2ccc3ccc(NCC4CC4)nc3c2)[C@@H](O)[C@H]1O
Parameter metric = IC50. Return the lower-valued option from P and Q . # respond with the chosen item's label
Q

[1] Cc1ncnc2c1ccn2[C@@H]1O[C@H](CCc2ccc3ccc(NCc4ccc(Cl)cc4)nc3c2)[C@@H](O)[C@H]1O
[2] Nc1ncnn2c([C@@H]3O[C@H](COc4ccc5cccnc5c4)[C@@H](O)[C@H]3O)ccc12
[3] COc1ncnc2c1ccn2[C@@H]1O[C@H](CNc2ccc3cc(Br)cnc3c2)[C@@H](O)[C@H]1O
[4] Nc1ncnc2c1ccn2[C@@H]1C[C@H](CCc2ccc3ccc(Nc4ccc(Cl)cc4)nc3c2)[C@@H](O)[C@H]1O
[5] CN(C[C@H]1O[C@@H](n2ccc3c(N)ncnc32)[C@H](O)[C@@H]1O)c1ccc2cc(Br)cnc2c1
List from greatest to least IC50. Would you mind listing the labels in the order asked for?
3, 2, 5, 1, 4
(3: 1000 nM, 2: 398 nM, 5: 158 nM, 1: 31.6 nM, 4: 1.58 nM)

[1] O[C@@H]1[C@@H](CCc2ccc3ccc(NCc4ccc(Cl)cc4)nc3c2)C[C@@H](n2ccc3c(Cl)ncnc32)[C@@H]1O
[2] Nc1ncnc2c1ccn2[C@@H]1O[C@H](COc2cccc3cccnc23)[C@@H](O)[C@H]1O
Parameter metric = IC50. Return the lower-valued option from 1 and 2 . # respond with the chosen item's label
1
(1: 25.1 nM, 2: 12600 nM)

[I] O[C@@H]1[C@H](O)[C@@H](COc2ccc3ccc(NCC4CC4)nc3c2)O[C@H]1n1ccc2c(Cl)ncnc21
[II] O[C@@H]1[C@H](O)[C@@H](COc2ccc3ccc(NCc4ccc(Cl)cc4)nc3c2)O[C@H]1n1ccc2cncnc21
[III] Nc1ncnc2c1ccn2[C@@H]1C[C@H](OCc2ccc3ccc(NCC4CC4)nc3c2)[C@@H](O)[C@H]1O
[IV] Cc1ncnc2c1ccn2[C@@H]1O[C@H](COc2ccc3ccc(NCc4ccc(Cl)cc4)nc3c2)[C@@H](O)[C@H]1O
List from greatest to least IC50. Would you mind listing the labels in the order asked for?
I, IV, II, III
(I: 50.1 nM, IV: 25.1 nM, II: 15.8 nM, III: 0.794 nM)

[P] Cc1nc(N)c2ccn([C@@H]3O[C@H](CNc4ccc5cc(Br)cnc5c4)[C@@H](O)[C@H]3O)c2n1
[Q] CNc1ccc2ccc(OC[C@H]3C[C@@H](n4ccc5c(NC)ncnc54)[C@H](O)[C@@H]3O)cc2n1
// compare measured IC50, left P , right Q , return larger # respond with the chosen item's label
P
(P: 50.1 nM, Q: 6.31 nM)

[P] Cc1cnc2cc(CC[C@H]3O[C@@H](n4ccc5c(N)ncnc54)[C@H](O)[C@@H]3O)ccc2c1
[Q] Nc1ncnc2c1ccn2[C@@H]1C[C@H](CCc2ccc3cnc(NC4CC4)nc3c2)[C@@H](O)[C@H]1O
Parameter metric = IC50. Return the lower-valued option from P and Q . # respond with the chosen item's label
P

[1] Nc1ccc2ccc(CC[C@H]3O[C@@H](n4ccc5cncnc54)[C@H](O)[C@@H]3O)cc2n1
[2] Nc1ncnc2c1ccn2[C@@H]1O[C@H](CNc2ccc3cc(Br)cnc3c2)[C@@H](O)[C@H]1O
Parameter metric = IC50. Return the lower-valued option from 1 and 2 . # respond with the chosen item's label
1
(1: 5.01 nM, 2: 15.8 nM)
